tested on: RPMI-8226 leukemia; assay: NCI-60 one-dose screen, 48 h; conditions: 10 µM
The panel holds about 83,000 compounds, 20% with a hit somewhere; the sample as a whole holds those more often. The source made the active and inactive calls. The calls were made as follows: active = growth percent below 10; inactive = the rest.
Possible outcomes: class 1 = active, class 0 = inactive

- CC/C(=C(/c1ccc(OCCN(C)C)cc1)c1ccc(OC(=O)CCC(=O)c2c(C)[nH]c(/C=C3\N=C(c4ccc[nH]4)C=C3OC)c2C)cc1)c1ccccc1: class 1
- C#Cc1ccc(-n2c(/C=C/c3ccc(O)c(OC)c3)nc3ncccc3c2=O)cc1: class 0
- COc1ccc2c(c1)O/C(=C\c1ccc([N+](=O)[O-])s1)C2=O: class 1
- Cc1ccc(-c2nc(/C=C3/C(=O)N(C)c4ccc(F)cc43)c3ccccn23)cc1: class 0
- O=C(N/N=C/c1ccccc1O)C(O)(c1ccccc1)c1ccccc1: class 0
- CCc1ccc2c(c1)N(CCO)C1=C(C(=O)OC1)C2c1cc(OC)c(OC)c(OC)c1 (stereo not given): class 0
- N#CCCN1C/C(=C/c2ccccc2)C(=O)/C(=C/c2ccccc2)C1: class 1
- CSC1=NCCCC1: class 0
- CCN1CCC2(CC1)OC(c1ccccc1)C(c1ccccc1)O2 (stereo not given): class 0
- COc1ccc([N+](=O)[O-])c(C(=O)O)c1: class 0

---

system: MDA-MB-231 breast; assay: NCI-60 one-dose screen, 48 h; conditions: 10 µM
The panel holds about 83,000 compounds, 20% with a hit somewhere; the sample as a whole holds those more often. Active and inactive are the calls of the source. Rule for the calls: active = growth percent below 10; inactive = the rest.
Possible outcomes: active, inactive

* CCCCCCCNc1nc(C=O)ncc1-c1ccc(C(F)(F)F)cc1 | inactive
* O=S(=O)(NCCNc1nccc(-c2c(-c3ccc(F)cc3)nc3sccn23)n1)c1ccc2ccccc2c1 | inactive
* O=C1/C(=C\c2ccccc2)CN(C(=O)c2ccccc2)C/C1=C\c1ccccc1 | active
* CCCCCCCCCCCCCCCCN(C(C)c1ccccc1)S(=O)(=O)c1ccc(OC)c(N)c1 (stereo not given) | inactive
* O=C(N/N=C/c1cc2ccccc2c2ccccc12)c1cc(O)c(O)c(O)c1 | inactive
* COC(=O)[C@@H]1[C@H](O)[C@H](C)[C@H](O)[C@@](C)(O)/C=C\C=C(C)C(=O)Nc2c(C)c(OC(C)=O)c3c(c2O)C(=O)C(C)=C2OCOC(=C23)C(C)=C[C@@](C)(O)[C@H](O)[C@@H](C)[C@H]1OC(C)=O | inactive
* Nc1ncnc2[nH]c(=O)[nH]c12 | inactive
* Cc1ccc(C(=O)N2C/C(=C/c3ccccc3)C(=O)/C(=C/c3ccccc3)C2)cc1 | inactive
* COc1ccc(-c2nsc3c2NC(=O)CC3c2ccc(F)cc2)cc1 (stereo not given) | inactive
* O=C(c1ccc(Cl)cc1Cl)N1CCOCC1 | inactive
* COc1cc(-c2nnc(-c3c(-c4ccc(F)cc4)nc4ccccn34)o2)cc(OC)c1OC | inactive
* Cn1c([N+](=O)[O-])cnc1/C=C1\Oc2cc(Cl)ccc2C1=O | active
* COc1ccc(C2=Nc3c(C)nn(-c4ccccc4)c3NC(c3ccc(Oc4ccnc5cc(Cl)ccc45)c(OC)c3)C2)cc1 (stereo not given) | inactive
* Nc1nc(N)c2c(ccc3nccc32)[nH]1 | inactive
* COc1ccc2c(c1)O/C(=C\c1ccc([N+](=O)[O-])s1)C2=O | inactive
* COc1ccc(/C=C2/CN(CCC#N)C/C(=C\c3ccc(OC)cc3)C2=O)cc1 | active
* COc1ccc(Nc2ccnc(NCCNc3ccnc4cc(Cl)ccc34)n2)cc1 | inactive
* c1ccc([I+]c2ccccc2)cc1 | inactive
* COc1cc(-c2nc(-c3nnc(-c4ccccc4Cl)o3)c3ccccn23)cc(OC)c1OC | inactive
* O=C1/C(=C\c2ccc(F)cc2)CN(C(=O)c2ccccc2F)C/C1=C\c1ccc(F)cc1 | active
* O=C(Nc1ccncc1)C(=O)c1cn(S(=O)(=O)c2cc(Cl)cc(Cl)c2)c2ccccc12 | inactive
* COc1ccc2c(c1)O/C(=C\c1ncc([N+](=O)[O-])n1C)C2=O | active
* N#CCCN1C/C(=C/c2ccc(Cl)cc2)C(=O)/C(=C/c2ccc(Cl)cc2)C1 | active
* Cc1ccc(C)c(C(O)(c2cc(C)ccc2C)C2(O)CCCCC2)c1 | inactive
* O=c1cc(-c2ccccc2)[nH]n1-c1nc2ccccc2[nH]1 | inactive

---

Tested on: NCI-H522 lung
Assay: NCI-60 one-dose screen, 48 h
Conditions: 10 µM
Procedure: Growth inhibition of the NCI-H522 human Non-Small Cell Lung tumor cell line is measured as a screen for anti-cancer activity. Cells are grown in 96 well plates and exposed to the test compound for 48 hours. Compounds are tested at a single concentration, which is 10^-5 M for most compounds. The reported endpoint is percent growth (GI% or GIPRCNT), where numbers from 0 - 100% represent growth inhibition, and numbers from -100% - 0 represent cell death. […]
This is part of a sample that, as a whole, favours compounds with a hit. Of some 83,000 tested, about 20% had one in any assay. Calls of active or inactive are those of the source. How the source made its calls: active means growth percent below 10; inactive means the rest.
Possible outcomes: active, inactive

- N=C(N)c1ccc(-c2ccc(-c3cccs3)s2)s1: active
- COc1cc(-c2cc(/C=C/C(=O)c3ccc(F)c(F)c3)[nH]n2)cc(OC)c1OC: inactive
- C=C(Cl)[C@@](Cl)(CBr)CC[C@@H](Br)C(C)(C)Cl: inactive
- S=C1SCC(c2ccccc2)S1 (stereo not drawn): inactive
- O=C(Nc1cccc(Cl)c1)Nc1nccs1: active
- COc1cc(Cl)cc(-c2nn(-c3cccc(NC(=O)c4ccc(N5CCOCC5)c(C(F)(F)F)c4)c3)cc2-c2ccncc2)c1: inactive
- CCOC1(OCC)OC(c2ccccc2)=C(C#N)C(/C=C\c2ccccc2)C1(OCC)OCC (stereo not drawn): inactive
- CN1c2ccccc2[C@]2(Cc3ccccc3)Cc3ccccc3N[C@H]12: inactive

---

tested on: KM12 colon; test: NCI-60 one-dose screen, 48 h; settings: 10 µM
Compounds without any hit were thinned out: in the full panel of roughly 83,000, 20% have a hit. The source made the active and inactive calls. Rule for the calls: active = growth percent below 10; inactive = the rest.
Possible outcomes: active, inactive

• COc1cc(NC(=O)CSc2nc3ccccc3c(=O)n2CCc2ccccc2)cc(OC)c1OC = active
• O=C(O)CN1C(=O)c2cccc3cccc(c23)C1=O = inactive
• O=C(Nc1cccc(-n2cc(-c3ccncc3)c(-c3ccc(O)c(Cl)c3)n2)c1)Nc1ccc(Cl)c(Cl)c1 = active
• O=C(Nc1nc(-c2ccccc2Cl)cs1)c1cc(-c2ccc(Cl)cc2)nc2ccc(Cl)cc12 = inactive
• COc1ccc(-c2nc3ncccn3c2-c2nnc(-c3ccc(F)cc3)o2)cc1 = inactive
• CC1(C)OC2=C(CC1Br)C(=O)C(=O)c1ccccc12 (stereo unspecified) = active
• Nc1c(C(=O)Nc2cccc(F)c2)sc2nc3c(cc12)C(=O)CCC3 = inactive
• COc1cc(-c2nn3c(/C=C4/C(=O)Nc5ccccc54)c(-c4ccc(C)cc4)nc3s2)cc(OC)c1OC = inactive
• COc1ccc(OC)c(/C=C/c2nnc(Nc3ccc(Cl)cc3)o2)c1 = inactive
• C/C(=N\Nc1nc2ccccc2s1)c1ccncn1 = inactive
• CN(C)N=Nc1nn(C(=O)Nc2ccc(Cc3ccccc3)cc2)c2ccccc12 = inactive

---

system: U251 CNS; experiment: NCI-60 one-dose screen, 48 h (100 = growth as untreated, 0 = no growth, -100 = all killed); conditions: 10 µM
About 83,000 compounds went through this panel and 20% of them were active in at least one assay; those are over-represented in the sample as a whole.
quantity measured: growth (%)

- COc1cc(Cl)cc(-c2nn(-c3cccc(NC(=O)Nc4cc(C(F)(F)F)cc(C(F)(F)F)c4)c3)cc2-c2ccncc2)c1: -58
- Nc1ccc2cc(S(=O)(=O)O)cc(O)c2c1N=Nc1ccc(F)cc1: 115
- Nc1ncn([C@@H]2O[C@H](CO)[C@@H](O)[C@H]2O)c(=O)n1: 19.6
- COc1cc(-c2nc(-c3nnc(-c4ccc(F)c(Cl)c4)o3)c3ccccn23)cc(OC)c1OC: 31.8
- N=C1c2nc3n(c2C(=O)c2nc4n(c21)CCCC4)CCCC3: 50.7
- O=C(CC(C(=O)c1ccccc1)N1CCOCC1)c1ccccc1 (configuration not stated): 88
- NC(=O)CC1(c2ccccc2)CCCCC1: 102
- CC(=O)N(C)c1ccc(Nc2ccc(Nc3ccc(N(C)C(C)=O)cc3)c3c2C(=O)c2ccccc2C3=O)cc1: 77.3
- O=C(Nc1cccc(-n2cc(-c3ccncc3)c(-c3cc(O)cc(Cl)c3)n2)c1)Nc1ccc(Cl)c(C(F)(F)F)c1: -26.5
- COc1ccc(OC)c2c1C(=O)CC2C (configuration not stated): 100
- CSc1nc(=O)n(Cc2ccc(Cl)cc2)c(=O)[nH]1: 94.6
- Nc1ncnc2[nH]c(=O)[nH]c12: 97.8
- COc1cc(Cl)cc(-c2nn(-c3cccc(NC(=O)Nc4ccc(Cl)c(C(F)(F)F)c4)c3)cc2-c2ccncc2)c1: -48.3
- COc1ccc(-c2nn(-c3cccc(NC(=O)Nc4ccc(Cl)c(C(F)(F)F)c4)c3)cc2-c2ccncc2)cc1Cl: -41.1
- CCC(=O)N1C/C(=C/c2ccc(Br)cc2)C(=O)/C(=C/c2ccc(Br)cc2)C1: -81.4
- CC1(C)Cc2c(sc3ncn4nc(-c5ccc(O)cc5)nc4c23)CO1: 60.6
- FC(F)(F)c1ccc(-c2cnc(Cl)nc2N2CCC3(CC2)OCCO3)cc1: 85.3
- CN1CC[C@@H](c2c(O)cc(O)c3c(=O)cc(-c4ccccc4Cl)oc23)[C@@H](O)C1: 8.62
- Fc1ccc2nc(-c3nc(-c4ccccc4)n4ccccc34)[nH]c2c1: -67
- Nc1nc(N)c(NC(=O)CNc2ccc(C(=O)O)cc2)c(N)n1: 105
- CCOCCOCCOCCOCCOCCOCCOCCOCCOCCO (tested in a mixture with another compound): 7.66
- N#CC1=C(Nc2ccccc2Cl)SC(c2ccccc2O)NC1=O (configuration not stated): 104
- NC(=O)c1ccc(-c2cccc3c(=O)nc(N4CCOCC4)oc23)cc1: 97.7
- CN(C)CCOc1nc2ccccc2c2c1-c1ccc(Cl)cc1C2=O: 0.224
- COc1ccc(-c2cc(/C=C3\C(=O)Nc4ccc(Cl)cc43)[nH]n2)cc1OC: 95.2
- COc1ccc(OC)c(/C=C/c2nc(SCc3ccccc3)n(-c3ccc(Cl)cc3)n2)c1: 38.7
- CCn1cc(C(=O)O)c(=O)c2cnc(N3CCCC3)nc21: 103
